// data source = the supplement of paper PMC10567573

B1: HSP90AB1 (parent)
chain: QVANSAFVERVRKRGFEVVYMTEP

Variants of: B1
measurement protocol: protein stability index of a GFP-peptide fusion (GPS, HEK-293T) (PSI 1-6); higher = more stable;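 note: lentivirally expressed fusions sorted by FACS into six bins by GFP to DsRed ratio, PSI derived from sequencing read proportions per bin multiplied by bin number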
cond: c terminus: a fixed tail appended
Measured protein stability index, listed per entry for reference.
Output spec: single numeric token, no unit.

Look over these answered cases.
E17P	2.02
G15R	1.98

Ask: Given the variant P24R , write its reported protein stability index.
Reply: 2
